molecular target: Histone deacetylase 8 (Homo sapiens, UniProt Q9BY41); assay: Inhibition of full length recombinant human C-terminal His-tagged HDAC8 expressed in baculovirus infected sf9 cells using Boc-Lys-(TFA)-AMC as substrate preincubated for 15 mins followed by substrate addition measured after 60 mins by fluorescence assay
Sequence (Q9BY41 whole entry): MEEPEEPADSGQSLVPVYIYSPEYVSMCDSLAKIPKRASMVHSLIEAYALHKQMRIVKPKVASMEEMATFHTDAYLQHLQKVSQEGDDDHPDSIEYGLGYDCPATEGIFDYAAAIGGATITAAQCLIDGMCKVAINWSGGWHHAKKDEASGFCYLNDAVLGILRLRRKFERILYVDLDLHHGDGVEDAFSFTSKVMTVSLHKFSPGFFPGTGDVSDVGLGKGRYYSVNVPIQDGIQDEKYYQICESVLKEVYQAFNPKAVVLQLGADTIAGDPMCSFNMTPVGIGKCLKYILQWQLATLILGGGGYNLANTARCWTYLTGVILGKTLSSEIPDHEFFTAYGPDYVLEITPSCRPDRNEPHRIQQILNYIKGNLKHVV
pIC50: −log10 of the molar value.
// reported pIC50 per item

Query: Quick check: pIC50 of `Cc1ccc(-c2cc(C(F)(F)F)n(CCc3ccc(C(=O)NO)cc3)n2)cc1` ?
Response: < 5.30

Query: # repeat for `Cc1ccc(-c2cc(C)n(Cc3ccc(C(=O)NO)cc3)n2)cc1`
Response: < 5.30

Query: # repeat for `O=C(CCCCNC(=O)c1cc(-c2ccc(F)cc2)[nH]n1)NO`
Response: < 5.30

Query: # repeat for `O=C(CCCCCCNC(=O)c1cc(-c2ccc(F)cc2)[nH]n1)NO`
Response: 5.53

Query: # repeat for `CCc1cc(-c2ccc(F)cc2)n(Cc2ccc(C(=O)NO)cc2)n1`
Response: < 5.30

Query: # repeat for `Cc1cc(-c2ccc(F)cc2)nn1Cc1ccc(C(=O)NO)cc1`
Response: < 5.30

Query: # repeat for `Cc1ccc(-c2cc(C)nn2Cc2ccc(C(=O)NO)cc2)cc1`
Response: < 5.30

Query: # repeat for `O=C(CCCNC(=O)c1cc(-c2ccc(F)cc2)[nH]n1)NO`
Response: < 5.30

Query: # repeat for `Cc1ccc(-c2cc(C(F)(F)F)nn2-c2ccc(C(=O)NO)cc2)cc1`
Response: < 5.30

Query: # repeat for `Cc1cc(-c2ccc3c(c2)OCO3)nn1Cc1ccc(C(=O)NO)cc1`
Response: < 5.30
